Entry source: the supplement of paper PMC9732359

- method: protein stability index of a GFP-peptide fusion (yeast GPS) (PSI 1-4); higher = more stable; sorted into four equal gates, so the index is relative within each strain
- experimental_conditions: ubr1∆
protein stability index values by entry
value_kind: protein stability index

>>> result_value("ALTNELNELKAIKDKLE [YIL149C/MLP2]")
1.96
>>> result_value("FLYEILSSLKSFAIYSS [SRB8]")
1.14
>>> result_value("TITDLIEQGIPKHSYLS [SIR4]")
3.17
>>> result_value("VYKFMSLAKSSALWSSR [ECM29]")
1.74
>>> result_value("KLLNDLALENGEITKTE [NUT1]")
3.18
>>> result_value("QSSLDVAGLEDKFRKAC [SIR3]")
3.06
>>> result_value("VKDLGQGLKLAKKHKLN [SMC3]")
2.81
>>> result_value("TIFKSGEIDFIKNIGKS [YML103C/NUP188]")
2.51
>>> result_value("RALKVRNAQAQREAAAE [RPS6A]")
2.94
>>> result_value("LLATKQHDSSANEDEEE [CSN12]")
2.87
>>> result_value("PRRDGERKRKSVRGAIV [RPS6A]")
3.05
>>> result_value("EQTVSAVTEATSTNGDS [RGR1]")
3.43
>>> result_value("LNSLKDERSQGEKNFTS [SMC4]")
3.5
>>> result_value("VGLSQPDAKIQVRRDIP [YMR129W/POM152]")
2.97

====

- method: protein stability index of a GFP-peptide fusion (yeast GPS) (PSI 1-4); higher = more stable; sorted into four equal gates, so the index is relative within each strain
- experimental_conditions: ubr1∆
value_kind: protein stability index

>>> result_value("YESRNVAKRRFEYSKYR [RRP6]")
3.3
>>> result_value("KTYKEGINKNEEYRKQL [SMC1]")
2.19
>>> result_value("TISSLFVQLCEMGYLIQ [RPC82]")
2.39
>>> result_value("NLENHFKKSKIDHINEE [SCL1]")
2.58
>>> result_value("GKIPTLKISLIQIFRAH [PRP8]")
1.29
>>> result_value("ATDPVAAKPDNLANFSN [SWP82]")
3.26
>>> result_value("NLINLSIGASIADLASL [YCS4]")
2.69
>>> result_value("PADRPQGRRNSRNFSTR [SIR4]")
3.15

====

- method: protein stability index of a GFP-peptide fusion (yeast GPS) (PSI 1-4); higher = more stable; sorted into four equal gates, so the index is relative within each strain
- experimental_conditions: ubr1∆
Classify by protein stability index. Ranges: low-valued (below 2), mid-valued (2 to below 3), high-valued (3 or more)

>>> label_class("FKAIHGSQLRLSEWEEY [YCS4]")
"low-valued"
>>> label_class("DGTEYVLSSVREPDFWV [MED6]")
"mid-valued"
>>> label_class("TRAKIGGLNDPRLGSID [RPO21]")
"mid-valued"
>>> label_class("LKFLYLLDAYSHIESDS [MED1]")
"mid-valued"
>>> label_class("SAPKISSEIDRENVKSK [SIR4]")
"high-valued"
>>> label_class("YCDSMGRPQRKMMSFQA [RPB5]")
"high-valued"
>>> label_class("KLGIESKQPNSAIRKCV [RPS23A]")
"high-valued"
>>> label_class("EKFSEKMLKIWTMAFRT [ECM29]")
"low-valued"
>>> label_class("LDYQETYVEELFPIVKK [YJL039C/NUP192]")
"mid-valued"
>>> label_class("QLISAVLVSMGSSNKAV [YJL039C/NUP192]")
"low-valued"
>>> label_class("EFEKKLQETLNKSTSSE [YIL149C/MLP2]")
"high-valued"
>>> label_class("IGKMYDEYLGSHTDQPA [NNF1]")
"high-valued"
>>> label_class("TVQYVRFFWKRSTNKKS [UBP6]")
"low-valued"
>>> label_class("IIQLILWSIHPSRQFDH [SRB8]")
"low-valued"
>>> label_class("FTGDFLRRVEERFTKSK [FAS1]")
"mid-valued"
>>> label_class("WGHPTRMLLNLCKSATT [BRR2]")
"low-valued"
>>> label_class("IPTTKNLRLLVEENRVR [DLS1]")
"mid-valued"
>>> label_class("FKAEKLQIVNQLPANMV [RPC17]")
"high-valued"
>>> label_class("VKKPQKSKTSTGKERSK [SNM1]")
"high-valued"
>>> label_class("GFFENIETEFLLFTVKL [IRR1]")
"high-valued"
>>> label_class("EGIEIYDRKKLPRKEVD [RPC11]")
"high-valued"
>>> label_class("NVGTNTYRLGEWSKISV [POP1]")
"high-valued"
>>> label_class("EKKPAAKKTSTSVDGKK [HTB2]")
"mid-valued"
>>> label_class("TEKEPVPAVVDDPLENM [SNF6]")
"mid-valued"
>>> label_class("FQLVNDVMDELITSSAR [SIR3]")
"high-valued"

====

- method: protein stability index of a GFP-peptide fusion (yeast GPS) (PSI 1-4); higher = more stable; sorted into four equal gates, so the index is relative within each strain
- experimental_conditions: pdr5∆
value_kind: protein stability index

>>> result_value("KLSKVQLYEDLCRYEDT [MED4]")
3.29
>>> result_value("RSDREYPLLIRMSYGSH [SRP14]")
2.3
>>> result_value("YDTTPLLDTNSLEENAM [SKI6]")
2.96
>>> result_value("SSKLVDVYTLPSYVHFK [YML103C/NUP188]")
1.61
>>> result_value("GRPRYDTFGEGIIITDQ [BRR2]")
2.85
>>> result_value("KTYKEGINKNEEYRKQL [SMC1]")
2.2
>>> result_value("LGAVAGLIPYPHHNQSP [RET1]")
2.97
>>> result_value("IDIPLDEQAFYNKDKAE [RPC37]")
3.38
>>> result_value("GFNSIWKIPQNDIPQTE [SSN2]")
3.28
>>> result_value("TEIENYLLENNQVGTDE [YDL116W/NUP84]")
2.9
>>> result_value("SSSSDIIVPDLIELKSD [YML103C/NUP188]")
3.15
>>> result_value("SGNNSKKRKNKSSGSSM [ROX3]")
2.94
>>> result_value("EKVILVQEQLSKNRIIV [RET1]")
1.38
>>> result_value("VTIIPLDKIYTRPISSQ [SMC2]")
1.55

====

- method: protein stability index of a GFP-peptide fusion (yeast GPS) (PSI 1-4); higher = more stable; sorted into four equal gates, so the index is relative within each strain
- experimental_conditions: san1∆
protein stability index values by entry
value_kind: protein stability index

>>> result_value("TADAEILINTARIHAQN [PRE9]")
2.83
>>> result_value("SKKNRPTLQVGDLVYAR [RRP40]")
1.87
>>> result_value("WGHPTRMLLNLCKSATT [BRR2]")
1.75
>>> result_value("MEYHISNTDETKGENYQ [FAS2]")
2.75
>>> result_value("NFYRPLLRSVLVLLELV [YML103C/NUP188]")
1.18
>>> result_value("RGNKVNKQIEILTDLVN [ITC1]")
2.71
>>> result_value("LGAIEQILIFAADTSIV [YJL039C/NUP192]")
1.72
>>> result_value("VWGSETVASSKVGYTLP [RPL4A]")
3.14
>>> result_value("NLATWYHSAGGRDKHAL [SSN3]")
3.16
>>> result_value("QENGTIFRGSLIGCIPY [YDL088C/ASM4]")
2.48
>>> result_value("PAKIVNFEKPKNSSQLL [RPN5]")
3.21
>>> result_value("MNFNTPQQNKTPFSFGT [YJL041W/NSP1]")
2.92
>>> result_value("QLPVGFKNMGNTCYLNA [UBP6]")
1.48
>>> result_value("SPLQKEEALNFDISMAD [SSN2]")
3.18
>>> result_value("DKQDGTAKPAFSFGAKP [YJL041W/NSP1]")
3.22
>>> result_value("ESVELPLTHPELYEEMG [RPT2]")
2.78
>>> result_value("DLKESMVKGLLKSFTES [ECM29]")
2.8
>>> result_value("PKALRFDRLVAGQIPTG [FAS2]")
2.59
>>> result_value("RVQVGDIVTVGQCRPIS [RPS11A]")
3.07
>>> result_value("YESRNVAKRRFEYSKYR [RRP6]")
3.29
>>> result_value("DIAFVLNNLPYKNEDVT [YCS4]")
2.94
>>> result_value("PQALRVLRLKPGRKYTT [RPL16A]")
3.13
>>> result_value("VNRSVVVSAVGEARNDI [YAR002W/NUP60]")
2.83
>>> result_value("VHPFHVLRINKMLSCAG [RPL10]")
1.21
>>> result_value("YSSKPYKVDNMTRILPQ [RPN2]")
2.62
>>> result_value("ICYNKKTEYVLNDLNHL [REC8]")
1.68
>>> result_value("DEKGNEIKVGKQRFQGC [ARP9]")
3.06
>>> result_value("PPLLVYKWTQGINNLSE [PRP8]")
3.29
>>> result_value("GAKVKTMRRQKLTILQE [RET1]")
2.05
>>> result_value("KKSRLGNSFHLMRELLK [PRP8]")
2.39
